pKd values, listed per item
Molecular target: T1, EsCas13d, nuclease-dead (Eubacterium siraeum, UniProt B0MS50, R295A;H300A;R849A;H854A)
T1 sequence: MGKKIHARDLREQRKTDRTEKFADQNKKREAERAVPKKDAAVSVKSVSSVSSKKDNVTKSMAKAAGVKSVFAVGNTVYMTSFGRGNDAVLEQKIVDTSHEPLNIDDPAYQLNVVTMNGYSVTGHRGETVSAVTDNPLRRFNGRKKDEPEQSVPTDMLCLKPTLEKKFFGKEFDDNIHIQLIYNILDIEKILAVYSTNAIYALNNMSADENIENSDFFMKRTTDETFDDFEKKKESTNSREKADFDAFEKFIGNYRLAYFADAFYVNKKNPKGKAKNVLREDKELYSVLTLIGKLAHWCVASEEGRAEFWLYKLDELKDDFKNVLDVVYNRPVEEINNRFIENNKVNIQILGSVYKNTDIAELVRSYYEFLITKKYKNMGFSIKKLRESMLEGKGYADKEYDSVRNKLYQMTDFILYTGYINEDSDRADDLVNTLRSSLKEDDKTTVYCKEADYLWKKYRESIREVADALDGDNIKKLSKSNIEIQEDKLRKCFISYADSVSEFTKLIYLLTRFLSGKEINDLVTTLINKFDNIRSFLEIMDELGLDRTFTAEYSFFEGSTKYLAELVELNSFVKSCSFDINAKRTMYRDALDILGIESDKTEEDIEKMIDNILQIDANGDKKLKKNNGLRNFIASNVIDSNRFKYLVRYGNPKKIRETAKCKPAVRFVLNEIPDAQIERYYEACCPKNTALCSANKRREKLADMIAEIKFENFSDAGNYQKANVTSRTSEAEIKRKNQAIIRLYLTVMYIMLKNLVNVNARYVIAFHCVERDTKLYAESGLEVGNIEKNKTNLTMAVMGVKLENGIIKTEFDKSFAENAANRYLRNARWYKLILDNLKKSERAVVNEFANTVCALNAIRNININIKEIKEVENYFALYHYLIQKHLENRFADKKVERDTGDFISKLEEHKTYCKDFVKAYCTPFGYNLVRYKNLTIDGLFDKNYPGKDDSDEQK
Assay: crRNA (strand 1, pre-loaded); Mg2+; 40 mM Tris-HCl pH 7.5, 150 mM NaCl, 6 mM MgCl2, 1 mM DTT, 0.1% Tween-20, 0.2 mg/ml BSA; 25 C; 10 min per concentration, then washed
Details: tags: His6-TwinStrep-SUMO cleaved; N-terminal SNAP kept (SNAP-Surface 488); label: 3' end held by stalled T7 RNA polymerase
pKd: −log10 of the molar value.
assayEndpoint: pKd

>>> valueobserved("target 2 MT 5'PFS GGU 3'PFS CGC (mixed) RNA 1: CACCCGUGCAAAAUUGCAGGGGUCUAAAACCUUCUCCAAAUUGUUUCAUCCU RNA 2: GGGAAUGGAUCCACAUCUACGAAUUCGGUAGGAUGAAACAAUUUGGAGAAGCGCAGAUCGGAAGAGCACACGU")
7.82
>>> valueobserved("target 1 insU 3' of 14,insA 3' of 3 (mixed) RNA 1: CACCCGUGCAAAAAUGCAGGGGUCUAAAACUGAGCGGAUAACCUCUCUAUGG RNA 2: GGGAAUGGAUCCACAUCUACGAAUUCGUACCAUAGAGAUGGUUAUCCGCUACACCGAGAUCGGAAGAGCACACGU")
7.25
>>> valueobserved("target 3 G3C,G4C (mixed) RNA 1: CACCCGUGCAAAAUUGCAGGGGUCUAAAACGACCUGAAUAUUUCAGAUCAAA RNA 2: GGGAAUGGAUCCACAUCUACGAAUUCGUUUUUGAUCUGAAAUAUUCACCUCUGCAGAUCGGAAGAGCACACGU")
7.44
>>> valueobserved("target 3 C1U,U21A (mixed) RNA 1: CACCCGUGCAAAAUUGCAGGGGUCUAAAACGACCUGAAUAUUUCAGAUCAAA RNA 2: GGGAAUGGAUCCACAUCUACGAAUUCGUUUAUGAUCUGAAAUAUUCAGGUUUGCAGAUCGGAAGAGCACACGU")
7.08
>>> valueobserved("target 1 insC 3' of 17,insC 3' of 16 (mixed) RNA 1: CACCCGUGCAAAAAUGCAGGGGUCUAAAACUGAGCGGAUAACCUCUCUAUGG RNA 2: GGGAAUGGAUCCACAUCUACGAAUUCGUACCAUAGCACGAGGUUAUCCGCUCACCGAGAUCGGAAGAGCACACGU")
7.56

This collection of values is drawn from paper PMC10786891.
